// data source = PubChem BioAssay AID180

# T/C annotations
Test system: BDF1 mice, Adenocarcinoma 755 s.c., tumor weight T/C
Assay: NCI In Vivo Anticancer Drug Screen. Data for tumor model Adenocarcinoma 755 (subcutaneous) in B6D2F1 (BDF1) mice
Settings: endpoint: mean tumor weight; dose: 20.0 mg/kg/injection; schedule: Q01DX011 (ip); vehicle: methylcellulose (MC); higher = larger tumour

Consider the worked cases shown below.
COMPOUND	TEST_RESULT
Cn1c(=O)c2[nH]c(N/N=C/c3ccccc3)nc2n(C)c1=O	56 % of control
CNc1ncnc2c1cnn2C	29 % of control
Nc1nc(SCc2ccccc2)c2ncn(C3CCCO3)c2n1 (stereo not given)	2 % of control
Cc1cc(=O)c2c(C)cccc2[nH]1	59 % of control
CC(C)CCn1cnc2c(SCC(=O)O)nc(N)nc21	46 % of control
CN(N=O)C(N)=O	27 % of control
COC1C(OC(=O)/C=C/C=C/C=C/C=C/C(=O)O)CCC2(CO2)C1C1(C)OC1CC=C(C)C (stereo not given)	28 % of control
Fc1cccc(CSc2ncnc3c2ncn3C2CCCCO2)c1 (stereo not given)	13 % of control

### Prompt # query: T/C of entry Clc1ccc(CSc2ncnc3c2ncn3C2CCCCO2)cc1 (stereo not given)
### Response 84 % of control

### Prompt Given the entry CC(C)Cn1cnc2c(SCc3ccccn3)nc(N)nc21 , report its measured T/C.
### Response 5 % of control

* * *

Tested on: BDF1 mice, Adenocarcinoma 755 s.c., tumor weight T/C
Assay: NCI In Vivo Anticancer Drug Screen. Data for tumor model Adenocarcinoma 755 (subcutaneous) in B6D2F1 (BDF1) mice
Settings: endpoint: mean tumor weight; dose: 125.0 mg/kg/injection; schedule: Q01DX011 (ip); vehicle: other; higher = larger tumour
EXPERIMENTAL_ENDPOINT: T/C

### Prompt Recorded T/C for O=C(O)C(O)C(F)(F)F (stereo not given) , please?
### Response 111 % of control

### Prompt // lookup T/C for CCCCN(C)N=Nc1ccc(C(=O)OCC)cc1
### Response 37 % of control

### Prompt Consider the molecule COc1ncnc2nc[nH]c12 and give its measured T/C.
### Response 90 % of control

### Prompt Query (molecule): CN(C)N=Nc1ccc(-c2ccc(N=NN(C)C)cc2)cc1 ; field requested: T/C
### Response 32 % of control

### Prompt Field request: T/C | item: CNC(=O)C(C)C
### Response 90 % of control

* * *

System: BDF1 mice, Adenocarcinoma 755 s.c., tumor weight T/C
Assay: NCI In Vivo Anticancer Drug Screen. Data for tumor model Adenocarcinoma 755 (subcutaneous) in B6D2F1 (BDF1) mice
Conditions: endpoint: mean tumor weight; dose: 75.0 mg/kg/injection; schedule: Q01DX011 (ip); vehicle: carboxymethylcellulose (CMC); higher = larger tumour
EXPERIMENTAL_ENDPOINT: T/C

Here are 3 compounds together with their reported answers.
CN(C)N=Nc1ccc(C(=O)NN)cc1 31 % of control
NS(=O)(=O)c1nc(=S)c2[nH]cnc2[nH]1 117 % of control
CC[N+](C)(C)c1ncnc2nc[nH]c12 6 % of control

### Prompt Reported T/C, compound CCCCCn1cnc2c(=S)nc(N)[nH]c21 : ____
### Response 2 % of control

### Prompt Form field: reported T/C of O=C(O)Cc1ccc(C2CCCCC2)cc1
### Response 81 % of control

### Prompt Would you mind telling me what T/C value was observed for CCCCn1cnc2c(=S)nc[nH]c21 ?
### Response 4 % of control

### Prompt Find the recorded T/C belonging to CN(C)S(=O)(=O)c1ncc2[nH]cnc2n1 and report it.
### Response 98 % of control

### Prompt Find the recorded T/C belonging to Cc1cnc2nc(N)nc(N)c2n1 and report it.
### Response 33 % of control

### Prompt Reported T/C for CN(CC#N)/N=N/c1nc[nH]c1C(N)=O : what is it?
### Response 73 % of control

### Prompt Requested read-out: T/C. Entry: O=c1[nH]c2nc(Cl)nc(Cl)c2[nH]1
### Response 117 % of control

### Prompt Give its T/C value. Item: CN(C)c1nc(S(=O)(=O)N(C)C)nc2nc[nH]c12
### Response 117 % of control

* * *

Test system: BDF1 mice, Adenocarcinoma 755 s.c., tumor weight T/C
Assay: NCI In Vivo Anticancer Drug Screen. Data for tumor model Adenocarcinoma 755 (subcutaneous) in B6D2F1 (BDF1) mice
Details: endpoint: mean tumor weight; dose: 90.0 mg/kg/injection; schedule: Q01DX011 (ip); vehicle: carboxymethylcellulose (CMC); higher = larger tumour
EXPERIMENTAL_ENDPOINT: T/C

COMPOUND	SYSTEM_UNDER_TEST	T/C
CCCCS(=O)(=O)OCCCCOS(=O)(=O)CCCC	BDF1 mice, Adenocarcinoma 755 s.c., tumor weight T/C	51 % of control

### Prompt So what T/C did CNC=O get with BDF1 mice, Adenocarcinoma 755 s.c., tumor weight T/C?
### Response 99 % of control

### Prompt Provide the documented T/C with BDF1 mice, Adenocarcinoma 755 s.c., tumor weight T/C as the system for C[C@H]1C(=O)O[C@@H]2CCN3CC=C(COC(=O)[C@](C)(O)[C@@]1(C)O)[C@H]23
### Response 15 % of control

### Prompt Short answer please: T/C, BDF1 mice, Adenocarcinoma 755 s.c., tumor weight T/C, entry COc1ccc(C[C@H](N)C(=O)NC2C(CO)OC(n3cnc4c(N(C)C)ncnc43)C2O)cc1 (some centres undefined)
### Response 51 % of control

* * *

Below, each entry is listed with its recorded T/C.
Tested on: BDF1 mice, Adenocarcinoma 755 s.c., tumor weight T/C
Experiment: NCI In Vivo Anticancer Drug Screen. Data for tumor model Adenocarcinoma 755 (subcutaneous) in B6D2F1 (BDF1) mice
Conditions: endpoint: mean tumor weight; dose: 225.0 mg/kg/injection; schedule: Q01DX011 (ip); vehicle: saline; higher = larger tumour

Please review the entries below; each comes with its answer.
COMPOUND	T/C
Nc1ncnc2c1ncn2CCN(CCO)CCO	158 % of control
CC(Nc1ncnc2nc[nH]c12)C(=O)O (stereo not given)	20 % of control
O=C(O)C(CS(=O)(=O)O)Nc1ncnc2nc[nH]c12 (stereo not given)	7 % of control

### Prompt Record CC(=O)Nc1c(Cl)c(Cl)c2c(c1Cl)Cc1cc(Cl)ccc1-2 : what is its T/C with BDF1 mice, Adenocarcinoma 755 s.c., tumor weight T/C?
### Response 8 % of control

### Prompt Lab note: need T/C with BDF1 mice, Adenocarcinoma 755 s.c., tumor weight T/C for entry NC(CS)C(=O)O (stereo not given) (tested in a mixture with another compound) , please look it up.
### Response 18 % of control

* * *

System: BDF1 mice, Adenocarcinoma 755 s.c., tumor weight T/C
Assay: NCI In Vivo Anticancer Drug Screen. Data for tumor model Adenocarcinoma 755 (subcutaneous) in B6D2F1 (BDF1) mice
Conditions: endpoint: mean tumor weight; dose: 5.0 mg/kg/injection; schedule: Q01DX011 (ip); vehicle: carboxymethylcellulose (CMC); higher = larger tumour
EXPERIMENTAL_ENDPOINT: T/C

O=C1Nc2cc3c(c4cccc1c24)CCCC3 95 % of control

### Prompt // T/C lookup, key: N#[N+]c1cnc([O-])[nH]c1=O
### Response 39 % of control

### Prompt Which T/C is listed for COCCCNS(=O)(=O)c1ncnc2nc[nH]c12 ?
### Response 86 % of control

### Prompt May I ask what T/C has been recorded for CCOC(=O)n1cnc2ncnc(SC)c21 ?
### Response 59 % of control

### Prompt Can you look up the measured T/C of O=[As]O for me?
### Response 21 % of control

### Prompt Can you look up the measured T/C of Cn1cc(F)c(=O)[nH]c1=O for me?
### Response 86 % of control

### Prompt Given Ic1ncnc2nc[nH]c12 , state its recorded T/C.
### Response 90 % of control

* * *

System: BDF1 mice, Adenocarcinoma 755 s.c., tumor weight T/C
Assay: NCI In Vivo Anticancer Drug Screen. Data for tumor model Adenocarcinoma 755 (subcutaneous) in B6D2F1 (BDF1) mice
Settings: endpoint: mean tumor weight; dose: 37.5 mg/kg/injection; schedule: Q01DX011 (ip); vehicle: saline; higher = larger tumour
molecules and their reported T/C

The following molecules have reported results that may help.
MOLECULE	TEST_RESULT
Nc1ncnc2nc(/N=N/SCCC(=O)O)[nH]c12	205 % of control
CCCCCn1cnc2c(SCc3ccccc3)nc(N)nc21	68 % of control
Nc1ncnc2c1ncn2C1CCCO1 (stereo not given)	120 % of control
c1ccc2cc(SCCCN3CCOCC3)ccc2c1	115 % of control

Then this molecule:
### Prompt Report T/C for CCC(C)N1C(=O)CCC1=O (stereo not given) please.
### Response 26 % of control
